- System: ISC-enriched organoids
- Assay comment: Primary screen, 384-well 2.5-D organoid differentiation (ENR+CD, 6 days, Target Selective Inhibitor Library, vs whole-plate median): ATP (CellTiter-Glo 3D, CTG)
- Condition description: primary screen, dose 0.08 uM, ENR+CD 6 days, FC vs plate median
Decide using Dose.FC.CTG alone. Strictly below -0.3 log 2 fold change: True. Equal to or above -0.3 log 2 fold change: False.

Compound: C[C@@H]1COCCN1c1cc(C2(S(C)(=O)=O)CC2)nc(-c2cccc3[nH]ccc23)n1 [AZ20]
Assigned category: False
--
Compound: CC(C)C[C@H](NC(=O)[C@H](Cc1ccccc1)NC(=O)c1cnccn1)B(O)O [Bortezomib (PS-341)]
Assigned category: True
--
Compound: C=CC(=O)Nc1cccc(Nc2nc(Nc3ccc(OCCOC)cc3)ncc2F)c1 [AVL-292]
Assigned category: False
--
Compound: CCNC(=O)c1noc(-c2cc(C(C)C)c(O)cc2O)c1-c1ccc(CN2CCOCC2)cc1 [AUY922 (NVP-AUY922)]
Assigned category: True
--
Compound: O=C(Oc1cc(S(=O)(=O)c2ccccc2)ccc1[N+](=O)[O-])c1ccc(Cl)cc1 [BTB06584]
Assigned category: False
--
Compound: COc1cc(N2CCC(N)CC2)ccc1Nc1ncc(Cl)c(-c2c[nH]c3ccccc23)n1 [AZD3463]
Assigned category: False
--
Compound: Cc1cc([C@@H](C)Nc2ccccc2C(=O)O)c2nc(N3CCOCC3)cc(=O)n2c1 [AZD6482]
Assigned category: False
--
Compound: O=C(O)C(Cc1ccccc1[N+](=O)[O-])=NNc1nc(-c2ccc(Cl)c(Cl)c2)cs1 (mixture of isomers) [4EGI-1]
Assigned category: False
